test-protocol: Cytotoxicity against human MCF-10A cells
Type: cell-based
condition-notes: read-out: LD50 (the source's name)
readout: CC50 (nM)
Answers are plain numbers, in nM.

Identify the reported CC50 for the following entry. CC(C)C[C@H](NC(=O)[C@@H](NC(=O)c1ccc(/N=N\c2ccc(-c3ccccc3)cc2)cc1)[C@@H](C)O)B1OC2C[C@@H]3C[C@H](C2O1)C3(C)C (some centres not stated)
144

Sourced from ChEMBL document CHEMBL4699423
